The measurements presented in this section are drawn from patent US11407763B2.

// reported pIC50 per item
Target: TPH1 (tryptophan hydroxylase 1) (Homo sapiens (Human))
Sequence (P17752 whole entry): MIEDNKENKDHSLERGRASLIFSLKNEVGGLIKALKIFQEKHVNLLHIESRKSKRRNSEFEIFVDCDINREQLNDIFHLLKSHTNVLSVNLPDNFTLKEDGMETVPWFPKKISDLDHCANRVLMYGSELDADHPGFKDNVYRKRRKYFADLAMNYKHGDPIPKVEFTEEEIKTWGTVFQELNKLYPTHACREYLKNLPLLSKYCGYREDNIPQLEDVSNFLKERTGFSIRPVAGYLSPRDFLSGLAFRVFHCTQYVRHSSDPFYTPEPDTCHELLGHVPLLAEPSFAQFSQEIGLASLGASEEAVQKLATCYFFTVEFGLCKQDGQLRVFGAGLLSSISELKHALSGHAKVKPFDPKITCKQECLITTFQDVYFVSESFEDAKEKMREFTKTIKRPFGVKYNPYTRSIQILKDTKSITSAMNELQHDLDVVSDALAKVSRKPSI
Experiment: TPH1 inhibitor screening assay kit (BPS Bioscience), fluorescence
Assay type: biochemical
Conditions: TPH1 enzyme, 4 hours at 4° C., ex 300 nm / em 360 nm
pIC50: −log10 of the molar value. Structures can show the parent of a compound that is named as a salt.
value-type: pIC50

- compound: "Nc1nc(O[C@H](c2ccc(Cl)cc2C2=CCC(F)(F)CC2)C(F)(F)F)cc(C2=CCC(C[C@H](N)C(=O)O)CC2)n1 (stereo partly drawn) [Example 75, hydrochloride]"
  target-or-test-system: "TPH1 (tryptophan hydroxylase 1) (Homo sapiens (Human))"
  value-type: "pIC50"
  measured-number: 6.35
- compound: "N[C@@H](Cc1ccc(-c2csc3c(O[C@H](c4ccc(Cl)cc4-c4cccc(F)c4)C(F)(F)F)ncnc23)cc1)C(=O)O [Example 24, hydrochloride]"
  target-or-test-system: "TPH1 (tryptophan hydroxylase 1) (Homo sapiens (Human))"
  value-type: "pIC50"
  measured-number: 6.25
- compound: "Cc1ccn(-c2cc(Cl)ccc2[C@@H](Oc2ncnc3c(-c4ccc(C[C@H](N)C(=O)O)cc4)csc23)C(F)(F)F)n1 [Example 8, hydrochloride]"
  target-or-test-system: "TPH1 (tryptophan hydroxylase 1) (Homo sapiens (Human))"
  value-type: "pIC50"
  measured-number: 7.44
- compound: "Nc1nc(OC(c2ccc(Cl)cc2-c2ccccc2)C(F)(F)F)cc(C2=CCC(C[C@H](N)C(=O)O)CC2)n1 (stereo partly drawn) [Example 48, hydrochloride]"
  target-or-test-system: "TPH1 (tryptophan hydroxylase 1) (Homo sapiens (Human))"
  value-type: "pIC50"
  measured-number: 6.36
- compound: "N[C@@H](Cc1ccc(-c2csc3c(OC(c4ccc(Cl)cc4-c4ccc(F)cc4)C(F)(F)F)ncnc23)cc1)C(=O)O (stereo partly drawn) [Example 46, hydrochloride]"
  target-or-test-system: "TPH1 (tryptophan hydroxylase 1) (Homo sapiens (Human))"
  value-type: "pIC50"
  measured-number: 5.06
- compound: "COc1cccc(-c2ccc(Cn3ccc4c(-c5ccc(C[C@H](N)C(=O)O)cc5)ncnc43)cc2)c1 [Example 23, hydrochloride]"
  target-or-test-system: "TPH1 (tryptophan hydroxylase 1) (Homo sapiens (Human))"
  value-type: "pIC50"
  measured-number: 6.24
